Listed below are molecules with IC50 for human 20 S proteasome (Homo sapiens, UniProt P28074), each taken from published literature.

These solved cases illustrate the format of a correct answer.
INSERT INTO assay_data (molecule, readout_value) VALUES
  ('CCOc1cccc(CC(NC(=O)CCn2cc(-c3ccccc3)nn2)B(O)O)c1 (stereo not shown)', '50 to 500 nM'),
  ('O=C(Cc1ccccc1)N[C@@H](CC1COc2ccccc21)B(O)O (stereo partly shown)', '500 to 5000 nM'),
  ('O=C(COc1ccccn1)N[C@@H](Cc1ccccc1)B(O)O', '500 to 5000 nM');

GET /values?item= CCOc1ccc(CC(=O)N[C@@H](C[C@@H]2COc3ccccc32)B(O)O)nc1 &system= human 20 S proteasome (Homo sapiens, UniProt P28074) returns IC50: 500 to 5000 nM

GET /values?item= CC1(C)[C@@H]2C[C@H]3OB([C@H](CC4CCC4)NC(=O)[C@H](Cc4ccccc4)NC(=O)c4cccnc4Nc4cccc(C(F)(F)F)c4)O[C@@]3(C)[C@H]1C2 &system= human 20 S proteasome (Homo sapiens, UniProt P28074) returns IC50: < 50 nM

GET /values?item= COc1ccc2occ(C[C@H](NC(=O)CCn3c(=O)sc4ccccc43)B(O)O)c2c1 &system= human 20 S proteasome (Homo sapiens, UniProt P28074) returns IC50: 50 to 500 nM

GET /values?item= O=C(Cc1ccc(-c2ccccc2)cc1)N[C@@H](Cc1coc2ccccc12)B(O)O &system= human 20 S proteasome (Homo sapiens, UniProt P28074) returns IC50: 500 to 5000 nM

GET /values?item= COc1cc(F)cc(C[C@H](NC(=O)CCc2noc(-c3ccccc3)n2)B(O)O)c1 &system= human 20 S proteasome (Homo sapiens, UniProt P28074) returns IC50: 500 to 5000 nM

GET /values?item= COc1ccc(C(=O)CC(Cc2ccccc2)C(=O)N[C@@H](Cc2cc(F)cc(OC)c2)B(O)O)cc1 (stereo partly shown) &system= human 20 S proteasome (Homo sapiens, UniProt P28074) returns IC50: 50 to 500 nM

GET /values?item= O=C(Cc1ccccc1C(F)(F)F)N[C@@H](Cc1coc2ccccc12)B(O)O &system= human 20 S proteasome (Homo sapiens, UniProt P28074) returns IC50: 500 to 5000 nM

GET /values?item= CO[C@@H](C(=O)N[C@@H](CC1COc2c(C)cccc21)B(O)O)c1ccccc1 (stereo partly shown) &system= human 20 S proteasome (Homo sapiens, UniProt P28074) returns IC50: > 5000 nM

GET /values?item= COc1ccc(CC(=O)N[C@@H](Cc2coc3c(C)ccc(C)c23)B(O)O)cc1 &system= human 20 S proteasome (Homo sapiens, UniProt P28074) returns IC50: 500 to 5000 nM

GET /values?item= CCc1cccc(C[C@H](NC(=O)CCc2cn(-c3ccccc3)nn2)B(O)O)c1 &system= human 20 S proteasome (Homo sapiens, UniProt P28074) returns IC50: > 5000 nM

GET /values?item= O=C(N[C@@H](CC1CCC1)B(O)O)[C@H](Cc1ccccc1)NS(=O)(=O)c1ccc(N2CCOCC2)nc1 &system= human 20 S proteasome (Homo sapiens, UniProt P28074) returns IC50: < 50 nM

GET /values?item= COCc1ccccc1CC(=O)N[C@@H](Cc1coc2ccccc12)B(O)O &system= human 20 S proteasome (Homo sapiens, UniProt P28074) returns IC50: 500 to 5000 nM

GET /values?item= C[C@@H](C(=O)N[C@@H](Cc1coc2ccccc12)B(O)O)c1ccccc1 &system= human 20 S proteasome (Homo sapiens, UniProt P28074) returns IC50: 500 to 5000 nM

###

Listed below are compounds with IC50 for UniProt P28074, each taken from published literature.

INSERT INTO assay_data (compound, measured_on, readout_value) VALUES
  ('N#Cc1ccccc1CC(=O)N[C@@H](C[C@H]1COc2c(Cl)cccc21)B(O)O', 'UniProt P28074', '> 5 µM'),
  ('COc1cc(C[C@H](NC(=O)CCn2cnc3ccccc32)B(O)O)ccc1C', 'UniProt P28074', '0.5 to 5 µM'),
  ('Cc1cccc2c1OC[C@@H]2C[C@H](NC(=O)Cc1ccccc1)B(O)O', 'UniProt P28074', '> 5 µM'),
  ('CCc1cccc(C[C@H](NC(=O)[C@@H](CC(=O)c2ccccc2)c2ccc(Cl)cc2)B(O)O)c1 (single isomer, unassigned)', 'UniProt P28074', '> 5 µM'),
  ('COc1ccc(C[C@H](NC(=O)[C@@H](C)NC(=O)[C@@H]2CCC(=O)NC2)C(=O)N[C@@H](CC2CCCC2)C(=O)[C@@]2(C)CO2)cc1', 'UniProt P28074', '54.8 µM');

GET /values?item= O=C(Cc1ccccc1)N[C@@H](Cc1coc2ccccc12)B(O)O &system= UniProt P28074 returns IC50: 0.05 to 0.5 µM

GET /values?item= O=C(N[C@@H](Cc1ccccc1)C(=O)N[C@@H](CC1CCC1)B(O)O)c1cccnc1Oc1ccccc1 &system= UniProt P28074 returns IC50: < 0.05 µM

###

Listed below are compounds with pIC50 for human 20 S proteasome (Homo sapiens, UniProt P28074), each taken from published literature.
pIC50: −log10 of the molar value.

These solved cases illustrate the format of a correct answer.
INSERT INTO assay_data (compound, readout_value) VALUES
  ('O=C(CCc1cn(-c2ccccc2)nn1)N[C@@H](Cc1ccc2ccccc2c1)B(O)O', '6.30 to 7.30'),
  ('O=C(Cc1ccccc1)NC(Cc1coc2c(F)cccc12)B(O)O (stereo not shown)', '5.30 to 6.30'),
  ('C[C@H](NC(=O)CN1CCOCC1)C(=O)N[C@@H](Cc1cccc(S(C)(=O)=O)c1)C(=O)N[C@@H](CC1CCCC1)C(=O)[C@@]1(C)CO1', 6.15),
  ('CO[C@@H](C(=O)N[C@@H](Cc1coc2c(C)cccc12)B(O)O)c1ccccc1', '5.30 to 6.30'),
  ('Cc1cccc2c1OC[C@H]2C[C@H](NC(=O)Cc1ccccc1)B(O)O', '< 5.30');

GET /values?item= N#Cc1ccccc1CC(=O)N[C@@H](C[C@@H]1COc2ccccc21)B(O)O &system= human 20 S proteasome (Homo sapiens, UniProt P28074) returns pIC50: 5.30 to 6.30

GET /values?item= CN1C(=O)Cc2cc(S(=O)(=O)N[C@@H](Cc3ccccc3)C(=O)N[C@@H](CC3CCC3)B(O)O)ccc21 &system= human 20 S proteasome (Homo sapiens, UniProt P28074) returns pIC50: > 7.30

###

Listed below are compounds with pIC50 for human 20 S proteasome (Homo sapiens, UniProt P28074), each taken from published literature.
pIC50: −log10 of the molar value.

INSERT INTO results (compound, readout_value) VALUES
  ('COc1ccc(C[C@H](NC(=O)[C@@H](C)NC(=O)[C@H]2CC[C@H](O)CC2)C(=O)N[C@@H](CC2=CCCC2)C(=O)[C@@]2(C)CO2)cc1', 6.23);

GET /values?item= C[C@@H](C(=O)N[C@@H](C[C@@H]1COc2ccccc21)B(O)O)c1ccccc1C(=O)N(C)C &system= human 20 S proteasome (Homo sapiens, UniProt P28074) returns pIC50: < 5.30

GET /values?item= O=C(CCn1c(=O)sc2ccccc21)N[C@@H](Cc1coc2ccccc12)B(O)O &system= human 20 S proteasome (Homo sapiens, UniProt P28074) returns pIC50: > 7.30

GET /values?item= O=C(c1cccc(S(=O)(=O)N[C@@H](Cc2ccccc2)C(=O)N[C@@H](CC2CCC2)B(O)O)c1)c1ccccn1 &system= human 20 S proteasome (Homo sapiens, UniProt P28074) returns pIC50: > 7.30

GET /values?item= O=C(Cc1ccc(OCCCO)cc1)N[C@@H](Cc1coc2ccccc12)B(O)O &system= human 20 S proteasome (Homo sapiens, UniProt P28074) returns pIC50: 6.30 to 7.30

GET /values?item= O=C(N[C@@H](Cc1ccsc1)B(O)O)[C@H]1CCCC[C@@H]1C(=O)c1ccccc1 (racemic) &system= human 20 S proteasome (Homo sapiens, UniProt P28074) returns pIC50: < 5.30

GET /values?item= C[C@H](NC(=O)CN1CCOCC1)C(=O)N[C@@H](Cc1ccc(S(N)(=O)=O)cc1)C(=O)N[C@@H](CC1CCCC1)C(=O)[C@@]1(C)CO1 &system= human 20 S proteasome (Homo sapiens, UniProt P28074) returns pIC50: 6.18

GET /values?item= CCc1cccc(C[C@H](NC(=O)CCn2cnc3ccccc32)B(O)O)c1 &system= human 20 S proteasome (Homo sapiens, UniProt P28074) returns pIC50: 6.30 to 7.30

GET /values?item= COc1ccc(C[C@H](NC(=O)[C@H](CO)NC(=O)CN2CCOCC2)C(=O)N[C@@H](Cc2ccccc2)C(=O)[C@@]2(C)CO2)cc1 &system= human 20 S proteasome (Homo sapiens, UniProt P28074) returns pIC50: 6.33

GET /values?item= COCC(=O)Nc1ccc(CC(=O)N[C@@H](Cc2ccc(C)cc2C)B(O)O)cc1 &system= human 20 S proteasome (Homo sapiens, UniProt P28074) returns pIC50: < 5.30

GET /values?item= Cc1ccc(C[C@H](NC(=O)Cc2ccccc2)B(O)O)cc1 &system= human 20 S proteasome (Homo sapiens, UniProt P28074) returns pIC50: 5.30 to 6.30

GET /values?item= COc1ccc(C[C@H](NC(=O)CNC(=O)CN2CCOCC2)C(=O)N[C@@H](Cc2ccccc2)C(=O)[C@@]2(C)CO2)cc1 &system= human 20 S proteasome (Homo sapiens, UniProt P28074) returns pIC50: 5.61

GET /values?item= CCO[C@@H](C(=O)N[C@@H](CC1COc2c(C)cccc21)B(O)O)c1ccccc1 (some centres unmarked) &system= human 20 S proteasome (Homo sapiens, UniProt P28074) returns pIC50: < 5.30

GET /values?item= COc1ccc(C[C@H](NC(=O)[C@H](C)NC(=O)CC2CCOCC2)C(=O)N[C@@H](CC2CCCC2)C(=O)[C@@]2(C)CO2)cc1 &system= human 20 S proteasome (Homo sapiens, UniProt P28074) returns pIC50: 6.92
